molecular target: Human Mer (Homo sapiens, UniProt Q12866); construct: Human Mer (residues R557-E882 with H628Q and R794A, 0.7 nM); experiment: Human Mer kinase assay (33P radiometric / HTRF KinEase); conditions: protocols of Examples C-1 and/or C-2
Sequence (Q12866 557-882 limits assumed): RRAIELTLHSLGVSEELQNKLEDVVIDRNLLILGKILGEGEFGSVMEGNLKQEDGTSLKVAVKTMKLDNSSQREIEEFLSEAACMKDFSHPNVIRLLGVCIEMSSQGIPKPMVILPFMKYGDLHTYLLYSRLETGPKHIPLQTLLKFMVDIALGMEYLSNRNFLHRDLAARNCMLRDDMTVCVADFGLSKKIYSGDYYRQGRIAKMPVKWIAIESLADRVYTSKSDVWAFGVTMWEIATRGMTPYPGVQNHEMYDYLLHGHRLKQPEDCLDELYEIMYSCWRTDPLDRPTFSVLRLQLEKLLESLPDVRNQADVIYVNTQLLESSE
pIC50: −log10 of the molar value.
measurement.name: pIC50

molecule	pIC50
COc1cc2nccc(Oc3ccc(NC(=O)c4cn(CCF)c(C)c(C5=CCCCC5)c4=O)cc3F)c2nc1OC [Compound 8]	≥ 7.00

The molecule identified as COc1cc2nccc(Oc3ccc(NC(=O)c4c(C)nc(C)c(C(N)=O)c4O)cc3F)c2nc1OC [Compound 84] registered its pIC50 at < 6.52
